# Assay Notes: physchem
# Details: 1-octanol/phosphate buffer, pH 7.4
Endpoint Name: logD

- Chemical Smiles: "COc1cc(OC)cc(C(=O)Nc2nc(-c3ccncc3)c(N3CCN(C)CC3)s2)c1"
  logD: 4.1
- Chemical Smiles: "Cc1c(C(=O)Nc2nc(C3CCC3)c(N3CCN(C)CC3)s2)cnn1-c1ccc(C#N)cc1"
  logD: 4
- Chemical Smiles: "COc1cc(OC)cc(C(=O)Nc2nc(-c3ccccn3)c(N3CCN(C)CC3)s2)c1"
  logD: 3.7
- Chemical Smiles: "COc1cc(OC)cc(C(=O)Nc2nc(-c3ccccc3)c(C3CCN(C)CC3)s2)c1"
  logD: 3.6
- Chemical Smiles: "COc1cc(OC)cc(C(=O)Nc2nc(-c3ccccc3)c(CN3CCCCC3)s2)c1"
  logD: 4.9
- Chemical Smiles: "Cc1nn(-c2ccc(F)cn2)cc1C(=O)Nc1nc(C2CCC2)c(CCN2CCCCC2)s1"
  logD: 4.5
- Chemical Smiles: "COc1cc(OC)cc(C(=O)Nc2nc(C3CC3)c(N3CCN(C)CC3)s2)c1"
  logD: 4
- Chemical Smiles: "CN1CCN(c2sc(NC(=O)c3cc(-c4ccccc4)n(C)n3)nc2C2CCC2)CC1"
  logD: 4.9
- Chemical Smiles: "COc1cc(OC)cc(C(=O)Nc2nc(C3CCC3)c(N3CCN(C)CC3)s2)c1"
  logD: 4.6

###

# Assay Notes: in vitro
# Details: rat, pooled liver microsomes
Endpoint Name: CLint scaled at 0.75 h, 0.2 µM (mL/min/kg)
Please state the figure in mL/min/kg; there is no need to write the unit.

QUERY: Item under review: Cc1nn(-c2ccc(F)cn2)cc1C(=O)Nc1nc(C2CCC2)c(CCN2CCCCC2)s1 . Reported CLint scaled at 0.75 h, 0.2 µM?
RESULT: 798

###

# Assay Notes: physchem
# Details: 1-octanol/phosphate buffer, pH 7.4
Endpoint Name: logD

- Chemical Smiles: "COc1cc(OC)cc(C(=O)Nc2nc(-c3cccnc3)c(N3CCN(C)CC3)s2)c1"
  logD: 4.1
- Chemical Smiles: "COc1cc(OC)cc(C(=O)Nc2nc(-c3ccccc3)c(CCCN3CCOCC3)s2)c1"
  logD: 4.7
- Chemical Smiles: "COc1cc(OC)cc(C(=O)Nc2nc(-c3ccccc3)c(CCCN(C)C)s2)c1"
  logD: 3.5
